B1: Dystrobrevin alpha, residues 235 to 294; numbered along this chain, Q9Y4J8 (parent)
chain: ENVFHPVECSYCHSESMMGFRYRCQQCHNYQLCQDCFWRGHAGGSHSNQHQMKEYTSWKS

# Variants of: B1
# Protocol summary: abundance fitness (aPCA) (normalised: wild type 0, dead -1); higher = more abundant; growth selection in yeast, the domain comes from the species named
# Measurement setup: Homo sapiens
Each entry gets not met if its abundance fitness stays under -0.2, and met if its abundance fitness is -0.2 or above.

Before answering, review these 4 worked examples.
>  <Residue change>
G43W

>  <Assigned class>
not met

$$$$
>  <Residue change>
R39N

>  <Assigned class>
met

$$$$
>  <Residue change>
H46C

>  <Assigned class>
not met

$$$$
>  <Residue change>
H46F

>  <Assigned class>
not met

$$$$

Shift focus to the following entry.
Enquiry: Please check the record `G44N` and state if its abundance fitness is at or above -0.2.
Return: not met
